test system: rodent lifetime carcinogenesis bioassay, tumor incidence TD50; test: carcinogenic potency in animals, long-term in vivo studies, CPDB compilation (AID 1745844); details: rat; strain Fischer 344; females; in feed; site: liver; lesion: hepatocellular adenoma + hepatocellular carcinoma + neoplastic nodule; dosed 103 weeks; study length 108 weeks
measurement kind: TD50 (mg/kg/day)
Entry rule: numbers only, all in mg/kg/day.

Query :: Consider the compound `CC(C)(c1ccc(O)cc1)c1ccc(O)cc1` and give its recorded TD50.
Result :: 595

----------
test system: rodent lifetime carcinogenesis bioassay, tumor incidence TD50; assay: carcinogenic potency in animals, long-term in vivo studies, CPDB compilation (AID 1745844); details: mouse; strain B6C3F1; females; in feed; site: liver; lesion: hyperplastic nodule; dosed 96 weeks; study length 104 weeks
Activity calls are given as the source filed them. No rule for the calls is given here.
Could you please report measured TD50 for the items listed next?

Query :: Consider the compound `CCOc1ccc(NC(C)=O)cc1` and give its recorded TD50.
Result :: 14000 mg/kg/day (inactive)

Query :: Consider the compound `O` and give its recorded TD50.
Result :: 60500 mg/kg/day (inactive)

Query :: Consider the compound `COc1ccc([C@@H]2CC(=O)c3c(O)cc(O[C@@H]4O[C@H](CO[C@@H]5O[C@@H](C)[C@H](O)[C@@H](O)[C@H]5O)[C@@H](O)[C@H](O)[C@H]4O)cc3O2)cc1OC` and give its recorded TD50.
Result :: 379000 mg/kg/day (inactive)

----------
test system: rodent lifetime carcinogenesis bioassay, tumor incidence TD50; test: carcinogenic potency in animals, long-term in vivo studies, CPDB compilation (AID 1745844); conditions: mouse; strain B6C3F1; males; inhaled; site: liver; lesion: hepatocellular adenoma + hepatoblastoma + hepatocellular carcinoma; dosed 103 weeks; study length 104 weeks
measurement kind: TD50 (mg/kg/day)
Entry rule: numbers only, all in mg/kg/day.

Query :: # return TD50 of `CC#N` (system: rodent lifetime carcinogenesis bioassay, tumor incidence TD50)
Result :: 90.4

Query :: # return TD50 of `CCc1ccccc1` (system: rodent lifetime carcinogenesis bioassay, tumor incidence TD50)
Result :: 9310

----------
test system: rodent lifetime carcinogenesis bioassay, tumor incidence TD50; experiment: carcinogenic potency in animals, long-term in vivo studies, CPDB compilation (AID 1745844); conditions: mouse; strain Swiss albino; females; in drinking water; site: blood vessels; lesion: several types; types named in the paper; dosed 93 weeks; study length 93 weeks
measurement kind: TD50

Query :: # return TD50 of `NNCCc1ccccc1` (system: rodent lifetime carcinogenesis bioassay, tumor incidence TD50)
Result :: 14.6 mg/kg/day

----------
test system: rodent lifetime carcinogenesis bioassay, tumor incidence TD50; test: carcinogenic potency in animals, long-term in vivo studies, CPDB compilation (AID 1745844); conditions: rat; strain Sprague-Dawley; females; inhaled; site: kidney; lesion: nephroblastoma; dosed 25 weeks; study length 135 weeks
measurement kind: TD50 (mg/kg/day)
Entry rule: numbers only, all in mg/kg/day.

Query :: Consider the compound `C=CCl` and give its recorded TD50.
Result :: 3140

----------
system: rodent lifetime carcinogenesis bioassay, tumor incidence TD50; test: carcinogenic potency in animals, long-term in vivo studies, CPDB compilation (AID 1745844); settings: hamster; strain Syrian Golden; females; in drinking water; site: any site (literature study); lesion: several types; types named in the paper; dosed 102 weeks; study length 102 weeks
measurement kind: TD50 (mg/kg/day)
Entry rule: numbers only, all in mg/kg/day.

Query :: Consider the compound `CN(N)C=O` and give its recorded TD50.
Result :: 6.04

----------
tested on: rodent lifetime carcinogenesis bioassay, tumor incidence TD50; assay: carcinogenic potency in animals, long-term in vivo studies, CPDB compilation (AID 1745844); details: mouse; strain B6C3F1; males; in feed; site: any site (literature study); lesion: one or several types; types not named; dosed 81 weeks; study length 81 weeks
measurement kind: TD50
Field note: include the unit after the figure.

Query :: Consider the molecule `Cc1cccc2ccccc12` and give its recorded TD50.
Result :: 2260 mg/kg/day

----------
system: rodent lifetime carcinogenesis bioassay, tumor incidence TD50; test: carcinogenic potency in animals, long-term in vivo studies, CPDB compilation (AID 1745844); conditions: mouse; strain C57BL/6JfC3Hf/Nctr x BALB/cStCrlfC3Hf/Nctr inter se; males; in drinking water; site: liver; lesion: hepatocellular carcinoma; dosed 60 weeks; study length 60 weeks
measurement kind: TD50

Query :: Consider the compound `Nc1ccc(-c2ccc(N)cc2)cc1` and give its recorded TD50.
Result :: 74.3 mg/kg/day

----------
test system: rodent lifetime carcinogenesis bioassay, tumor incidence TD50; assay: carcinogenic potency in animals, long-term in vivo studies, CPDB compilation (AID 1745844); conditions: rat; strain Fischer 344; females; in feed; site: clitoral gland; lesion: adenoma, NOS + carcinoma, NOS + cystadenoma, NOS + squamous-cell carcinoma + squamous-cell papilloma; dosed 78 weeks; study length 107 weeks
measurement kind: TD50 (mg/kg/day)
Entry rule: numbers only, all in mg/kg/day.

Query :: Consider the molecule `COc1ccc(N)cc1N` and give its recorded TD50.
Result :: 416

----------
system: rodent lifetime carcinogenesis bioassay, tumor incidence TD50; test: carcinogenic potency in animals, long-term in vivo studies, CPDB compilation (AID 1745844); details: mouse; strain B6C3F1; males; inhaled; site: lung; lesion: alveolar/bronchiolar carcinoma; dosed 104 weeks; study length 105 weeks
measurement kind: TD50 (mg/kg/day)
Entry rule: numbers only, all in mg/kg/day.

Query :: Consider the molecule `CCBr` and give its recorded TD50.
Result :: 2390

----------
test system: rodent lifetime carcinogenesis bioassay, tumor incidence TD50; assay: carcinogenic potency in animals, long-term in vivo studies, CPDB compilation (AID 1745844); conditions: mouse; strain B6C3F1; males; in feed; site: liver; lesion: hepatocellular adenoma + hepatocellular carcinoma; dosed 104 weeks; study length 105 weeks
measurement kind: TD50

Query :: Consider the compound `Nc1ccc(N)c2c1C(=O)c1c(N)ccc(N)c1C2=O` and give its recorded TD50.
Result :: 534 mg/kg/day

Query :: Consider the compound `CN(C)NC(=O)CCC(=O)O` and give its recorded TD50.
Result :: 2450 mg/kg/day

----------
system: rodent lifetime carcinogenesis bioassay, tumor incidence TD50; experiment: carcinogenic potency in animals, long-term in vivo studies, CPDB compilation (AID 1745844); settings: rat; strain Sprague-Dawley; males; in feed; site: any site (literature study); lesion: several types; types named in the paper; dosed 104 weeks; study length 104 weeks
The source made the active and inactive calls. How the calls were made is not given here.
measurement kind: TD50

Query :: # return TD50 of CCN(CC)C(=O)Nc1ccc(OCC(O)CNC(C)(C)C)c(C(C)=O)c1 (stereo unspecified) (system: rodent lifetime carcinogenesis bioassay, tumor incidence TD50)
Result :: 684 mg/kg/day (inactive)

----------
system: rodent lifetime carcinogenesis bioassay, tumor incidence TD50; assay: carcinogenic potency in animals, long-term in vivo studies, CPDB compilation (AID 1745844); details: rat; strain Fischer 344; males; in feed; site: lung; lesion: alveolar/bronchiolar carcinoma; dosed 104 weeks; study length 105 weeks
measurement kind: TD50 (mg/kg/day)
Entry rule: numbers only, all in mg/kg/day.

Query :: Consider the molecule `OCC(CO)(CBr)CBr` and give its recorded TD50.
Result :: 1300

----------
tested on: rodent lifetime carcinogenesis bioassay, tumor incidence TD50; assay: carcinogenic potency in animals, long-term in vivo studies, CPDB compilation (AID 1745844); settings: mouse; strain B6C3F1; females; in feed; site: pituitary gland; lesion: adenoma, NOS; dosed 103 weeks; study length 104 weeks
Calls of active or inactive are those of the source. The rule behind the calls is not given here.
measurement kind: TD50

Query :: Consider the molecule `CCOC(=O)/C(Cl)=N/Nc1ccccc1` and give its recorded TD50.
Result :: 20200 mg/kg/day (inactive)

----------
system: rodent lifetime carcinogenesis bioassay, tumor incidence TD50; test: carcinogenic potency in animals, long-term in vivo studies, CPDB compilation (AID 1745844); details: rat; strain Fischer 344; males; inhaled; site: urinary bladder; lesion: transitional-cell papilloma; dosed 104 weeks; study length 104 weeks
measurement kind: TD50 (mg/kg/day)
Entry rule: numbers only, all in mg/kg/day.

Query :: Consider the compound `C=CC(=C)Cl` and give its recorded TD50.
Result :: 468

----------
system: rodent lifetime carcinogenesis bioassay, tumor incidence TD50; assay: carcinogenic potency in animals, long-term in vivo studies, CPDB compilation (AID 1745844); conditions: rat; strain Sprague-Dawley; females; in feed; site: urinary bladder; lesion: several types; types named in the paper; dosed 112 weeks; study length 112 weeks
measurement kind: TD50

Query :: # return TD50 of `S=C(SN1CCOCC1)N1CCOCC1` (system: rodent lifetime carcinogenesis bioassay, tumor incidence TD50)
Result :: 206 mg/kg/day

----------
system: rodent lifetime carcinogenesis bioassay, tumor incidence TD50; test: carcinogenic potency in animals, long-term in vivo studies, CPDB compilation (AID 1745844); conditions: mouse; strain Swiss; males; in feed; site: liver; lesion: several types; types named in the paper; dosed 116 weeks; study length 124 weeks
Active and inactive are the calls of the source. The rule behind the calls is not given here.
measurement kind: TD50

Query :: Consider the molecule `Cc1ncc([N+](=O)[O-])n1CCO` and give its recorded TD50.
Result :: 20700 mg/kg/day (inactive)
